# systemTested: T1, Recombinant human MASP1 enzyme (fragment corresponding to amino acids 297-699, C-terminal His Tag) (human, UniProt P48740 297-699)
# T1 sequence: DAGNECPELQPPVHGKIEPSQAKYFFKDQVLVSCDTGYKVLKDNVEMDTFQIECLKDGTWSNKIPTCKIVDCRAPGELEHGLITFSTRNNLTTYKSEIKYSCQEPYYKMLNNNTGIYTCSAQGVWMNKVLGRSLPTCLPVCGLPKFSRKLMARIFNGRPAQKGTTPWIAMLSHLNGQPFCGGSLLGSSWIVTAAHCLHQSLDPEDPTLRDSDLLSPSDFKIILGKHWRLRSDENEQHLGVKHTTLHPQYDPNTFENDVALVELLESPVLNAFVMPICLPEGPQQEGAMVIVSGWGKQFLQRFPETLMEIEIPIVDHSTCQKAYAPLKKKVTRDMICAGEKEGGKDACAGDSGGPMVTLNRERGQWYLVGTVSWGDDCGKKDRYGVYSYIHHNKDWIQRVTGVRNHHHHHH
# test: cell-based or functional assay
Bridge positions count the residues as written; N and C are the ends. Square brackets hold non-standard residues; d marks the D form. Ends that are not written are not given here. tBuAla = CC(C)(C)C[C@H](N)C(=O)O; NMeC = CN[C@@H](CS)C(=O)O; NMeA = CN[C@@H](C)C(=O)O
measurementType: human MASP1 IC50 (nM)
One number for each entry, in nM.

Q: Any idea what its human MASP1 IC50 is? The binder is [NMeA]ICSRS[tBuAla]PPI[NMeC]IPD-NH2 (disulfide 3-11; N-terminus assumed; SMILES CC[C@H](C)[C@H](NC(=O)[C@H](C)NC)C(=O)N[C@H]1CSSC[C@@H](C(=O)N[C@H](C(=O)N2CCC[C@H]2C(=O)N[C@@H](CC(=O)O)C(N)=O)[C@@H](C)CC)N(C)C(=O)[C@H]([C@@H](C)CC)NC(=O)[C@@H]2CCCN2C(=O)[C@@H]2CCCN2C(=O)[C@H](CC(C)(C)C)NC(=O)[C@H](CO)NC(=O)[C@H](CCCNC(=N)N)NC(=O)[C@H](CO)NC1=O) [((N-Me)A)-IC+SRS-((tBu)A)-PPI-((N-Me)C)+IPD-NH2]
Result: 4.4
